B1: LINE1-full (parent)
chain: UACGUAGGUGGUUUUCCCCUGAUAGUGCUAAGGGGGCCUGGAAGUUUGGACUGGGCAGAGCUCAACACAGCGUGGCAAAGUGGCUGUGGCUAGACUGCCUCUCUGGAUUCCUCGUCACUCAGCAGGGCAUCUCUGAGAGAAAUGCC

variants of: B1; assay: self-cleavage, relative activity (ratio to wild type); higher = more cleavage; in vitro, sequencing; the parent is a self-cleaving ribozyme
measure_name: self-cleavage
One number for each entry.

variant_string="U12C U132C" measure_name=self-cleavage quantitative_result=1.13
variant_string="U29C G122U" measure_name=self-cleavage quantitative_result=1.35
variant_string="C16U A138G" measure_name=self-cleavage quantitative_result=2.06

For every item below, please supply its self-cleavage.
1. C63U U73G
2. A67U A69G
3. A69U U104C

0.21
0.03
0.05

meta.source: the RNAGym collection of RNA variant scans (doi:10.7554/elife.90254)
